- target.or.system: Insulin receptor (Homo sapiens, UniProt P06213)
- Sequence (P06213 28-758 limits assumed): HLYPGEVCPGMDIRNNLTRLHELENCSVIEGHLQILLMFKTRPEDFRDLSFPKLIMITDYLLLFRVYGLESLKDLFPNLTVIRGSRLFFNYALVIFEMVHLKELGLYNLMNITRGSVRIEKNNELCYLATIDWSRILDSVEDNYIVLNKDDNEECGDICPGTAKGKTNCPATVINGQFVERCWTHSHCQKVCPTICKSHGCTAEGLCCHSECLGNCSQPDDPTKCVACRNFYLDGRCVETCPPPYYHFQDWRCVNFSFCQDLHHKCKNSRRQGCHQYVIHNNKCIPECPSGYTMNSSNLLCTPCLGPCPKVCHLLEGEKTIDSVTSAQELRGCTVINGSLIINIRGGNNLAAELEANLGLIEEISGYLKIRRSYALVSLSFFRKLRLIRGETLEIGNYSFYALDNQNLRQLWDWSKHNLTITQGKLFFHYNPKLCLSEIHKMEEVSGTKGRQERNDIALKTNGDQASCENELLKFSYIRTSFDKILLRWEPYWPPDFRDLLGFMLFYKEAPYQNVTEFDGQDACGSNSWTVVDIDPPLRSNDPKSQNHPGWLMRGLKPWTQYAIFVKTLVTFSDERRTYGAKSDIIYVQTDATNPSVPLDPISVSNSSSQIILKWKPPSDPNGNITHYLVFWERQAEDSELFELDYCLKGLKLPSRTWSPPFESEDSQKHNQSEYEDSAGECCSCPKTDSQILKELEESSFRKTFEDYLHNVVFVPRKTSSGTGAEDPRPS
- Sequence (P06213 763-1382 limits assumed): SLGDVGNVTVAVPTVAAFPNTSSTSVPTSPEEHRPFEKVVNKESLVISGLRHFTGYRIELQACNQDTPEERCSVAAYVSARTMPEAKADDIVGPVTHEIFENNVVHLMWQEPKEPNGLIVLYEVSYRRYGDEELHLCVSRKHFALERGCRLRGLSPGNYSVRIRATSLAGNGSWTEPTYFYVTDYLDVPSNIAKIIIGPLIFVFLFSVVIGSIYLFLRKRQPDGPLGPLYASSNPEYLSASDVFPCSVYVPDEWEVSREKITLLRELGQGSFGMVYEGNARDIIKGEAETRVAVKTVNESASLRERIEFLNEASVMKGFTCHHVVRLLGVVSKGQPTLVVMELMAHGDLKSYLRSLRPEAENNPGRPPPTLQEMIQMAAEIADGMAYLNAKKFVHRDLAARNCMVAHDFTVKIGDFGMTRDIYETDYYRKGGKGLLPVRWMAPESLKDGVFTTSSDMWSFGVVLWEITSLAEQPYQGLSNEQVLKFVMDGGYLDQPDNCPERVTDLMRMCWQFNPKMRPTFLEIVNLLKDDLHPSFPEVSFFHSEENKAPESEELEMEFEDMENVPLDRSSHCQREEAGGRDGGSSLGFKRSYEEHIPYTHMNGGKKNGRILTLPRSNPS
property: IC50 (µM)

1. N#C/C(=C\c1ccc(O)c(O)c1)C(N)=S : 640

====

- Test system: Escherichia coli
- assay.notes: Inhibition of Escherichia coli D-alanine-D-alanine ligase B assessed as residual activity at 2 mM preincubated for 30 mins by malachite green assay; values are per cent of control
property: residual activity (%)

1. N=C(N)NCCNS(=O)(=O)c1cccc2cnccc12 : 85.3
2. N#CC(C#N)=C(N)/C(C#N)=C/c1cc(O)c(O)c(O)c1 : 61.9
3. C/C(O)=C(\C#N)C(=O)Nc1c(C)cccc1C : 95
4. C/C(O)=C(\C#N)C(=O)Nc1cc(Br)ccc1Br : 41.2
5. O=C(Nc1cc(Br)ccc1Br)c1ccccc1O : 65.4
6. Oc1cc(O)cc(/C=C/c2ccc(O)c(O)c2)c1 : 84.6
7. O=c1c(O)c(-c2ccc(O)c(O)c2)oc2cc(O)cc(O)c12 : 77
8. N#C/C(C(=O)Nc1cc(Br)ccc1Br)=C(/O)CC(=O)O : 88.1
9. C/C(O)=C(\C#N)C(=O)Nc1cc(C(F)(F)F)ccc1C(F)(F)F : 58.6
10. C/C(O)=C(\C#N)C(=O)Nc1c(C)cccc1Cl : 46.1
11. COC[C@H]1OC(=O)c2coc3c2[C@@]1(C)C1=C(C3=O)[C@@H]2CCC(=O)[C@@]2(C)C[C@H]1OC(C)=O : 81.4
12. C/C(O)=C(\C#N)C(=O)Nc1ccc(C(F)(F)F)cc1 : 115
13. C/C(O)=C(\C#N)C(=O)Nc1c(C)cc(C)cc1C : 116
14. N#C/C(=C\c1ccc(O)c(O)c1)C(N)=S : 51.8
15. O=c1cc(N2CCOCC2)oc2c(-c3ccccc3)cccc12 : 83.9

The reported numbers originate from ChEMBL document CHEMBL1140982.
